# Tested on: SK-OV-3
# EXPERIMENTAL_PROTOCOL: NCI tumour cell line growth inhibition, 48 h
Active and inactive are the calls of the source. Cut-off read from the data, not from the text of the source: active = GI50 up to about 1.1 µM and inactive = higher.
PROPERTY_NAME: GI50

Check out these entries, answers already filled in.
Considering `Cc1noc(C)c1C1=CCCCc2ccccc21` , its GI50 with SK-OV-3 was recorded as > 100 µM (inactive)

Short answer on SK-OV-3 for COC(=O)c1c2c(cc3c1CC1(C3)Cc3cc4c(c(C(C)=O)c3C1)CCC4)C=CC2 (stereo unspecified) , GI50: > 10 µM (inactive)

GI50 of `C[n+]1c2ccccc2n2c3ccccc3c(NCc3ccco3)c(C#N)c21` , assay on SK-OV-3, is 3.85 µM (inactive)

Measured GI50 for this entry COC(=O)C1CC(=O)O[C@H]1c1ccc(OC)c(OC)c1 (stereo partly specified) on SK-OV-3: > 100 µM (inactive)

Form: item S=C1NC2=C(COc3ccccc32)C(c2ccc(Cl)cc2)N1 (stereo unspecified) ; test system SK-OV-3; GI50: 19.6 µM (inactive)

Lab note: next compound to report on.
Field GI50 (SK-OV-3), entry `Cc1cccc(-c2nnc(S)[nH]2)c1` : > 100 µM (inactive)

----------
Measured GI50 values are reported for all entries that follow.
# Tested on: A549
# EXPERIMENTAL_PROTOCOL: NCI tumour cell line growth inhibition, 48 h
Calls of active or inactive are those of the source. Cut-off read from the data, not from the text of the source: active = GI50 up to about 1.1 µM and inactive = higher.

Examples from the recorded data:
// returns GI50 for COC(=O)CCC1CCc2c(OC)ccc(OC)c2C1=O (stereo unspecified) with A549; value = > 100 µM (inactive)

Case `CO[C@H]1C[C@H](n2cc(C)c(=O)[nH]c2=O)O[C@@H]1CO` , A549, GI50 recorded as > 100 µM (inactive)

The reported GI50 value, A549, for CN1CCCC2[C@@H]3CCC4=C(O)C(=O)CC[C@]4(C)C3CC[C@@]21C (stereo partly specified) reads > 100 µM (inactive)

Known value: A549 GI50 of the compound `CCCCCC(=O)Nc1[nH]nnc1C(N)=O` equals > 100 µM (inactive)

Assay A549, sample O=S1(=O)c2ccccc2N=C(c2ccccc2Cl)CC1c1ccc(F)cc1 (stereo unspecified) , GI50 read: 20 µM (inactive)

Could you now look at the following compound, please?
With A549 as the test system, `O=c1cnc2cc3ccccc3cc2[nH]1` showed GI50 of > 100 µM (inactive)

----------
Below are GI50 values measured for HCT-15.
Counter-ions that a name gives are not always drawn.

Below, 5 molecules whose answers are already recorded.
GI50 measured on `O=c1cnc2cc3ccccc3cc2[nH]1` = > 100 µM

What the record says about CC1CC=CC(O)C1 (configuration not stated) : GI50 is > 100 µM

Just so you know, measured GI50 for COc1ccc(CC2Cc3ccccc3CC(=O)N2)cc1OC (configuration not stated) came out at > 100 µM

// GI50 value for `C[C@]12CC[C@@H]3c4ccc(OP(=O)(O)O)cc4CC[C@H]3[C@@H]1CCC2=O` : > 100 µM

Just so you know, measured GI50 for C=C1C[C@@H]2CC[C@@]34C[C@H]5O[C@H]6[C@@H](O3)[C@H]3O[C@H](CC[C@@H]3O[C@H]6[C@H]5O4)CC(=O)C[C@@H]3[C@@H](OC)[C@@H](C[C@H](O)CN)O[C@H]3C[C@H]3O[C@@H](CC[C@@H]1O2)C[C@@H](C)C3=C [ERIBULIN MESYLATE] came out at 0.053 µM

Continuing:
Entry `CCOC(=O)c1cc(NC(=O)N(CCC#N)CCN(C(=O)N[C@@H](Cc2ccccc2)C(=O)N[C@@H](CC(C)C)C(=O)NC)c2ccccc2)ccc1OC` ; GI50 = 57.4 µM

// GI50 value for `CSc1nc2c(=O)n(-c3ccccc3)c(=S)n(-c3ccccc3)c2s1` : > 100 µM
